Reference source: patent US9139587B2

tgt: recombinant human ACC2 (rhACC2) (Homo sapiens, UniProt O00763, V2141I)
Construct: a full length Cytomax clone of ACC2 was purchased from Cambridge Bioscience Limited
Sequence (O00763 whole entry V2141I): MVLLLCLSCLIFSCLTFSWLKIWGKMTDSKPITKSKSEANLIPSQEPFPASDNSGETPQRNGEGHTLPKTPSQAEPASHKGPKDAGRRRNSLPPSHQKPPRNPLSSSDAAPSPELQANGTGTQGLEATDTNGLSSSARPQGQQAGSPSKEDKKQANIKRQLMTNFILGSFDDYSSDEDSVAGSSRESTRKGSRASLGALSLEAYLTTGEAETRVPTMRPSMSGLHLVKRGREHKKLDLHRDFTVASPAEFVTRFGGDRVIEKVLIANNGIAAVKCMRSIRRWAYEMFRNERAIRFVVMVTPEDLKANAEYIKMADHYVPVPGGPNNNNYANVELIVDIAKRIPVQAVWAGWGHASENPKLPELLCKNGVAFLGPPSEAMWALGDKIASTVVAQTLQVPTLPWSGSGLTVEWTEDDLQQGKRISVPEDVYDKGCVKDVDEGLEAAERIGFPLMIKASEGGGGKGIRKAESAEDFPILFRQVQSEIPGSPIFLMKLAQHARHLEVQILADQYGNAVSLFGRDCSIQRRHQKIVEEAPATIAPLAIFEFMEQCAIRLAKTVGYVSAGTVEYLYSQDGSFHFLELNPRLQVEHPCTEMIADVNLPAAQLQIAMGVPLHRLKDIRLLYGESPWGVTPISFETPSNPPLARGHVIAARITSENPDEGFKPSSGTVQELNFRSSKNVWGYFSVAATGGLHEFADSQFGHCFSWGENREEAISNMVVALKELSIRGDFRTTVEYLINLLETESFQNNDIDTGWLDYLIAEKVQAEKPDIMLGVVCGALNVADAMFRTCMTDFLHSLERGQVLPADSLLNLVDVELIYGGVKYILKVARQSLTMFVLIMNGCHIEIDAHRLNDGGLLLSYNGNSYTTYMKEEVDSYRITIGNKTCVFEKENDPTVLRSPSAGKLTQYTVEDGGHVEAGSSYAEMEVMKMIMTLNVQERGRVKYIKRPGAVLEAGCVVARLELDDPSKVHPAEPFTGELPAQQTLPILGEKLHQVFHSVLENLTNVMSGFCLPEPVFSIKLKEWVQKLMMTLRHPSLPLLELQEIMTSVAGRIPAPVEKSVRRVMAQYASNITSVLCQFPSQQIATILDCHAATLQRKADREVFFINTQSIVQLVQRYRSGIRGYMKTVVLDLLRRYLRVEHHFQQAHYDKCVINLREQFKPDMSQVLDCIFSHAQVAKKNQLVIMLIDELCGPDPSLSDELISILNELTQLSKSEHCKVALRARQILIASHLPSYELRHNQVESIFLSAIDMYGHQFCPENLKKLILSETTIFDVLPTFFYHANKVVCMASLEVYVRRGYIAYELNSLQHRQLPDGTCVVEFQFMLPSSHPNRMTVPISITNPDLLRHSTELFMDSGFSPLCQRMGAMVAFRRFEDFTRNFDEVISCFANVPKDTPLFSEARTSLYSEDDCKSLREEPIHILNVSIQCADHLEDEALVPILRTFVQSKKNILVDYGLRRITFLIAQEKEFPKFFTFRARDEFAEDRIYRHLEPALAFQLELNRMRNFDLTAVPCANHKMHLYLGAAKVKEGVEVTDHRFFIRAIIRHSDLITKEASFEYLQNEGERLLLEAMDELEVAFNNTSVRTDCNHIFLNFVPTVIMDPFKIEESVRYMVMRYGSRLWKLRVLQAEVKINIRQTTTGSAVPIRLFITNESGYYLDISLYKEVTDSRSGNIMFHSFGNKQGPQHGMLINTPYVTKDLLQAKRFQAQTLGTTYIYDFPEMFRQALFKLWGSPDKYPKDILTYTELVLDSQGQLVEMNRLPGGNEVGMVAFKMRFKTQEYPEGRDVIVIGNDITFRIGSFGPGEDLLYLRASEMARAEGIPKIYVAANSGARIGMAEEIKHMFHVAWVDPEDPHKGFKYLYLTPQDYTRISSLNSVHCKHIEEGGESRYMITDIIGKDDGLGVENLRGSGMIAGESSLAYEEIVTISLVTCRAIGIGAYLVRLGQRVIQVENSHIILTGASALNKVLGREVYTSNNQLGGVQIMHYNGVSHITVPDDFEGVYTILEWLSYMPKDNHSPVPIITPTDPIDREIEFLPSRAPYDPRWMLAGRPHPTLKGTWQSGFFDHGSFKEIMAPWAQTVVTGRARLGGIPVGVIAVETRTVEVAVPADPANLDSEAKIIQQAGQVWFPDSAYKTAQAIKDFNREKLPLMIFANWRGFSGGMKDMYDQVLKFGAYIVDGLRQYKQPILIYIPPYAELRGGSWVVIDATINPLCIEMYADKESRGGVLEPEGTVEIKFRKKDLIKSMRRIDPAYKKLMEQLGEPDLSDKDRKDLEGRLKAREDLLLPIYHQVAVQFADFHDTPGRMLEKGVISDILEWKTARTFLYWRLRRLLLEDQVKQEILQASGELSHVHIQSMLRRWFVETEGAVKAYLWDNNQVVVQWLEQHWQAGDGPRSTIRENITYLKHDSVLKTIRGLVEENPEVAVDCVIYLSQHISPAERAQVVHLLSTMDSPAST
experimentSummary: recombinant hACC2 Transcreener assay (direct inhibition of ACC2 activity)
conditionSet: Transcreener ADP detection FP assay, 50 μM ATP, 30 μM acetyl-CoA, 50 min at 25° C.
assayReadout: pIC50
Reminder that pIC50 is minus the log10 of a molar concentration.

# value of pIC50, recombinant human ACC2 (rhACC2) (Homo sapiens, UniProt O00763, V2141I), item COCC(C)n1ncc2c1C(=O)CC1(CCN(C(=O)c3ccc(Cl)c(C)c3)CC1)C2 (centres unmarked) = 6.17

# value of pIC50, recombinant human ACC2 (rhACC2) (Homo sapiens, UniProt O00763, V2141I), item Cc1cc(C(=O)N2CCC3(CC2)CC(=O)c2c(cnn2C2CCOC2)C3)ccc1Cl (centres unmarked) = 6.90

# value of pIC50, recombinant human ACC2 (rhACC2) (Homo sapiens, UniProt O00763, V2141I), item `Cc1cc(C(=O)N2CCC3(CC2)CC(=O)c2c(cnn2CC(C)C)C3)ccc1Cl` = 6.32

# value of pIC50, recombinant human ACC2 (rhACC2) (Homo sapiens, UniProt O00763, V2141I), item `Cc1nn(C(C)C)c2c1CC1(CCN(C(=O)c3ccc4[nH]ncc4c3)CC1)CC2=O` = 7.42

# value of pIC50, recombinant human ACC2 (rhACC2) (Homo sapiens, UniProt O00763, V2141I), item `Cc1cc(C(=O)N2CCC3(CC2)CC(=O)c2c(cnn2C(C)C)C3)ccc1Cl` = 7.17

# value of pIC50, recombinant human ACC2 (rhACC2) (Homo sapiens, UniProt O00763, V2141I), item CC(C)(C)n1ncc2c1C(=O)CC1(CCN(C(=O)c3cc(-c4cccnc4)[nH]n3)CC1)C2 [Example 11A-29] = 7.19

# value of pIC50, recombinant human ACC2 (rhACC2) (Homo sapiens, UniProt O00763, V2141I), item `CC(C)n1ncc2c1C(=O)CC1(CCN(C(=O)c3cc4cccnc4[nH]3)CC1)C2` = 7.03

# value of pIC50, recombinant human ACC2 (rhACC2) (Homo sapiens, UniProt O00763, V2141I), item `CC(C)n1ncc2c1C(=O)CC1(CCN(C(=O)c3ccc4cnccc4n3)CC1)C2` = 5.49
